Test system: Swiss-type male mice
protocol: RotaRod performance test, motor coordination
particulars: T 30 min after ip administration, 32.25 μmol/kg (diazepam 2 mg/kg), 9 rpm, cut off 180 s, mean ± SEM
recordedEndpoint: Mice residence time on the rotational cylinder (s)

givenSmiles: CCOC(=O)C1(c2ccccc2)CCN(CCc2conc2-c2ccc(F)cc2)CC1.Cl
unitsOfMeasure: s
number: 153.3
//
givenSmiles: Cl.OC1(c2ccc(Cl)cc2)CCN(CCc2conc2-c2ccc(F)cc2)CC1
unitsOfMeasure: s
number: 179.0
//
givenSmiles: CC(=O)O.OC1(c2ccc(Cl)cc2)CCN(CCc2cncnc2-c2ccc(F)cc2)CC1
unitsOfMeasure: s
number: 178.8
//
givenSmiles: Cl.Cl.Fc1ccc(-c2n[nH]cc2CCN2CCCCC2)cc1.O
unitsOfMeasure: s
number: 178.2
//
givenSmiles: CCN1CCN(CCc2c[nH]nc2-c2ccc(F)cc2)CC1.Cl.Cl.Cl.O.O.O
unitsOfMeasure: s
number: 178.6
//
givenSmiles: CN1CCN(CCc2c[nH]nc2-c2ccc(F)cc2)CC1.Cl.Cl.Cl.O.O
unitsOfMeasure: s
number: 177.0
//
givenSmiles: Cl.Cl.Fc1ccc(-c2n[nH]cc2CCN2CCOCC2)cc1.O
unitsOfMeasure: s
number: 180.0
//
givenSmiles: OC1(c2ccc(Cl)cc2)CCN(CCc2c[nH]nc2-c2ccc(F)cc2)CC1
unitsOfMeasure: s
number: 95.5

* * *

Test system: Swiss-type male mice
protocol: RotaRod performance test, motor coordination
particulars: T 60 min after ip administration, 32.25 μmol/kg (diazepam 2 mg/kg), 9 rpm, cut off 180 s, mean ± SEM
recordedEndpoint: Mice residence time on the rotational cylinder (s)

givenSmiles: CN1CCN(CCc2c[nH]nc2-c2ccc(F)cc2)CC1.Cl.Cl.Cl.O.O
unitsOfMeasure: s
number: 178.5
--
givenSmiles: CCN1CCN(CCc2c[nH]nc2-c2ccc(F)cc2)CC1.Cl.Cl.Cl.O.O.O
unitsOfMeasure: s
number: 178.2
--
givenSmiles: Cl.Cl.Fc1ccc(-c2n[nH]cc2CCN2CCCCC2)cc1.O
unitsOfMeasure: s
number: 178.7
--
givenSmiles: Cl.Cl.Fc1ccc(-c2n[nH]cc2CCN2CCOCC2)cc1.O
unitsOfMeasure: s
number: 180.0
--
givenSmiles: CCOC(=O)C1(c2ccccc2)CCN(CCc2conc2-c2ccc(F)cc2)CC1.Cl
unitsOfMeasure: s
number: 163.2
--
givenSmiles: OC1(c2ccc(Cl)cc2)CCN(CCc2c[nH]nc2-c2ccc(F)cc2)CC1
unitsOfMeasure: s
number: 143.7
--
givenSmiles: Cl.OC1(c2ccc(Cl)cc2)CCN(CCc2conc2-c2ccc(F)cc2)CC1
unitsOfMeasure: s
number: 179.2
--
givenSmiles: CC(=O)O.OC1(c2ccc(Cl)cc2)CCN(CCc2cncnc2-c2ccc(F)cc2)CC1
unitsOfMeasure: s
number: 150.8

* * *

Tested on: Swiss-type male mice
protocol: RotaRod performance test, motor coordination
particulars: T 15 min after ip administration, 32.25 μmol/kg, 9 rpm, cut off 180 s, mean ± SEM
recordedEndpoint: Mice residence time on the rotational cylinder (s)

givenSmiles: OC1(c2ccc(Cl)cc2)CCN(CCc2c[nH]nc2-c2ccc(F)cc2)CC1
number: 100.9

givenSmiles: Cl.Cl.Fc1ccc(-c2n[nH]cc2CCN2CCCCC2)cc1.O
number: 180.0

givenSmiles: Cl.Cl.Fc1ccc(-c2n[nH]cc2CCN2CCOCC2)cc1.O
number: 180.0

givenSmiles: CCN1CCN(CCc2c[nH]nc2-c2ccc(F)cc2)CC1.Cl.Cl.Cl.O.O.O
number: 179.6

givenSmiles: Cl.OC1(c2ccc(Cl)cc2)CCN(CCc2conc2-c2ccc(F)cc2)CC1
number: 180.0

givenSmiles: CC(=O)O.OC1(c2ccc(Cl)cc2)CCN(CCc2cncnc2-c2ccc(F)cc2)CC1
number: 178.6

givenSmiles: CN1CCN(CCc2c[nH]nc2-c2ccc(F)cc2)CC1.Cl.Cl.Cl.O.O
number: 180.0

givenSmiles: CCOC(=O)C1(c2ccccc2)CCN(CCc2conc2-c2ccc(F)cc2)CC1.Cl
number: 127.4
